- SYSTEM: ErbB4 on neonatal rat cardiomyocytes (rat) (UniProt Q62956)
- Sequence (Q62956 26-1308): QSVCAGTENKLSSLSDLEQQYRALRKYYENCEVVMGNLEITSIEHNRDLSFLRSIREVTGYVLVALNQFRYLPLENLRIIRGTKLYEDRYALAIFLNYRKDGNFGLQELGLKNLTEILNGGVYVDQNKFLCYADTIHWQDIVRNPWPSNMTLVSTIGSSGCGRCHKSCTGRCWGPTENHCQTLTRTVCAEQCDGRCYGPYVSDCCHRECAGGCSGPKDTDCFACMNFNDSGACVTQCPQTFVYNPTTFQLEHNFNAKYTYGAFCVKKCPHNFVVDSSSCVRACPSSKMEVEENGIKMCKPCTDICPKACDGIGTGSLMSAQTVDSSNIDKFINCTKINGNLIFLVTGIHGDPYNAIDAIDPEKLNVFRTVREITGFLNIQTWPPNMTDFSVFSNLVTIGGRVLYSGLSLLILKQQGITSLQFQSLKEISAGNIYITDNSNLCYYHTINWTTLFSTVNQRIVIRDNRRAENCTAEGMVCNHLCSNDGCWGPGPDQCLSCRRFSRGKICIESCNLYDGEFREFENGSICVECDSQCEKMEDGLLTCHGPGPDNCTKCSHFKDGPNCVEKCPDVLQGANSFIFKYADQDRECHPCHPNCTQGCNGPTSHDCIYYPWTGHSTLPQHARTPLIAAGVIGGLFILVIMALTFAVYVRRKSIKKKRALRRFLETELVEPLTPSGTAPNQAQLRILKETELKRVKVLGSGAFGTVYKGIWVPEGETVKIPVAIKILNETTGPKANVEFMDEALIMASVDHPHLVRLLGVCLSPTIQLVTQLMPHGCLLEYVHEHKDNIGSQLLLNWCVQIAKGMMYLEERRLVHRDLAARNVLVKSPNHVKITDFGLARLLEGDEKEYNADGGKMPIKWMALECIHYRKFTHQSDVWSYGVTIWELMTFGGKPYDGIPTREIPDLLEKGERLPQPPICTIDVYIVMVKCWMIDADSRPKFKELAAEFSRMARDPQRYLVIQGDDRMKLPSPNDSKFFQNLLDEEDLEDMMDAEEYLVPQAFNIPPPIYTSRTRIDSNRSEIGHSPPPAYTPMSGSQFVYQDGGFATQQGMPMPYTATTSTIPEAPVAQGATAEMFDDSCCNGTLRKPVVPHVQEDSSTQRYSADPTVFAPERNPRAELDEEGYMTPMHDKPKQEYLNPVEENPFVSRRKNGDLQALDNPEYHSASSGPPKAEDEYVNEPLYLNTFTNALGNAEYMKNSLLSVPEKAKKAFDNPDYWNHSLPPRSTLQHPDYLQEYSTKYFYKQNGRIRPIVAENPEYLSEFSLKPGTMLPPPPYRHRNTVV
- METHOD NOTES: cell-based or functional assay
Listed binders paired with reported Selectivity SC/CM

Known results for binders:
huNRG1(S177-F229)(NRGE1C) (E47A_D48P_F49H_M50I) 6xHis (ligand) SHLVKCGEKHKSFCVNGGECFMIEGPSNPSRYLCKCPNEFTGDRCQAPHIASFGGGGEGGGGAGGGGHHHHHH    > 10000
huNRG1(S177-F229)(NRGE1C) (E47K_D48T_F49S_M50L) 6xHis (ligand) SHLVKCGEKHKSFCVNGGECFMIEGPSNPSRYLCKCPNEFTGDRCQKTSLASFGGGGEGGGGAGGGGHHHHHH    > 10000
huNRG1(S177-Q237)(1D3)::GG::huFcSEFL2 (Pb) (Fc fusion) SHLVKCGENDKSFCVNGGECFVIEDPSIPSRYLCKCPNEFTGDRCQNDFLASFYKAEELYQGGDKTHTCPPCPAPELLGGPSVFLFPPKPKDTLMISRTPEVTCVVVDVSHEDPEVKFNWYVDGVEVHNAKTKPCEEQYGSTYRCVSVLTVLHQDWLNGKEYKCKVSNKALPAPIEKTISKAKGQPREPQVYTLPPSREEMTKNQVSLTCLVKGFYPSDIAVEWESNGQPENNYKTTPPVLDSDGSFFLYSKLTVDKSRWQQGNVFSCSVMHEALHNHYTQKSLSLSPGK    > 10000

Query: Give the measured Selectivity SC/CM of huNRG1(S177-F229)(NRGE1C) (E47S_D48T_F49R_M50V) 6xHis (ligand) SHLVKCGEKHKSFCVNGGECFMIEGPSNPSRYLCKCPNEFTGDRCQSTRVASFGGGGEGGGGAGGGGHHHHHH .
Reply: > 10000

Query: Data request, read-out Selectivity SC/CM, for huNRG1(S177-Q237)(1D10)::GG::huFcSEFL2 (Pb) (Fc fusion) SHLVKCAERDKTFCVNGGECYMIEDLSIPSRYLCKCPNEFTGDRCQKDFMASFYKAEELYQGGDKTHTCPPCPAPELLGGPSVFLFPPKPKDTLMISRTPEVTCVVVDVSHEDPEVKFNWYVDGVEVHNAKTKPCEEQYGSTYRCVSVLTVLHQDWLNGKEYKCKVSNKALPAPIEKTISKAKGQPREPQVYTLPPSREEMTKNQVSLTCLVKGFYPSDIAVEWESNGQPENNYKTTPPVLDSDGSFFLYSKLTVDKSRWQQGNVFSCSVMHEALHNHYTQKSLSLSPGK
Reply: > 4000

Query: Bench note: what Selectivity SC/CM did huNRG1(S177-Q237)(3D8)::GG::huFcSEFL2 (Pb) (Fc fusion) SHLVKCGEKDKTFCVNGGECFMVEDLSIPSRFLCKCPNEFTGDRCQDFFMASFYKAEELYQGGDKTHTCPPCPAPELLGGPSVFLFPPKPKDTLMISRTPEVTCVVVDVSHEDPEVKFNWYVDGVEVHNAKTKPCEEQYGSTYRCVSVLTVLHQDWLNGKEYKCKVSNKALPAPIEKTISKAKGQPREPQVYTLPPSREEMTKNQVSLTCLVKGFYPSDIAVEWESNGQPENNYKTTPPVLDSDGSFFLYSKLTVDKSRWQQGNVFSCSVMHEALHNHYTQKSLSLSPGK show?
Reply: > 5800
